test-target: GlcA(b1-6)Gal
experimental-details: glycan array binding signal (z-score within array); higher = stronger binding
test-parameters: glycan notation: IUPAC condensed, linker removed
The full list was thinned out, with the strongest signals kept by preference.
parameter-measured: glycan array binding signal (z-score)

HPAIIITrx (Helix pomatia), Q1KM18 (protein) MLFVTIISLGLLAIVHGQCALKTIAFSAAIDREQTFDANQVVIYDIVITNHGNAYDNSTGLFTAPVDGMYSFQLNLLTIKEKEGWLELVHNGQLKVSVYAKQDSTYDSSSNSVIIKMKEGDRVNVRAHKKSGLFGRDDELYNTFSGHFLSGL    -0.196
Gal 7 (Homo sapiens) (protein) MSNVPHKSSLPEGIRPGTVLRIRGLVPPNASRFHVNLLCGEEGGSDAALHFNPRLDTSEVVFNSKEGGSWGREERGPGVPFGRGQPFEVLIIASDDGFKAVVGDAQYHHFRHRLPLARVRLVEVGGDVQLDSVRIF    -0.332

Here is another binder to look at.
# input Name the reported glycan array binding signal (z-score) value associated with the binder CALR truncated at D342 (Homo sapiens) (protein) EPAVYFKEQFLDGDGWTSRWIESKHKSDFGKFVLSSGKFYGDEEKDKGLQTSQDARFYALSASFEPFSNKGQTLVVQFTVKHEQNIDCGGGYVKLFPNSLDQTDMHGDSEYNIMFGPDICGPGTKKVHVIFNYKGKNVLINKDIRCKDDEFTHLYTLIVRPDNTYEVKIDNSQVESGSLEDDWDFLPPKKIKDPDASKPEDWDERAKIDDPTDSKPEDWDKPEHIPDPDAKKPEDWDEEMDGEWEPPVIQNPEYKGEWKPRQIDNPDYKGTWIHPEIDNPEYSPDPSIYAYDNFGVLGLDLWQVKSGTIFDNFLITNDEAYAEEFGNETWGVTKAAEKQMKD
# output 1.96
